System: A549 (lung)
Assay Procedure: SRB-based cytotoxicity assay
Type: cell-based
Condition: Homo sapiens, 72 hours
Below, each of the compounds is paired with its reported IC50 value.
Please respond with the number in nM and leave the unit unwritten.

- Compound: "COc1ccccc1C(=O)/C=C/c1cc2ccccc2[nH]c1=O [CTR-17]"
  Readout Label: "IC50"
  Unit Descriptor: "nM"
  Result: 410

Turning now to a further compound:
**Q:** What value of IC50 has been recorded for this entry: COc1ccc2[nH]c(=O)c(/C=C/C(=O)c3ccccc3OC)cc2c1 [CTR-20]
**A:** 130

----------
Test system: RPMI-8226 (myeloma)
Assay Procedure: SRB-based cytotoxicity assay
Assay type: cell-based
Condition: 72 hours, Table 4
Readout Label: IC50 (nM)
Quick reminder: number only, in nM, skip the unit.

- Compound Smiles: "COc1ccccc1C(=O)/C=C/c1cc2cccc(OC)c2[nH]c1=O"
  Result: 5.34

**Q:** Entry CCOc1ccccc1C(=O)/C=C/c1cc2ccccc2[nH]c1=O : reported IC50 = ?
**A:** 6.29

----------
Listing of entries alongside the reported Resistance (fold).
Test system: KB-C-2
Assay Procedure: SRB-based cytotoxicity assay, single and combination with paclitaxel
Assay type: cell-based, human
Condition: KB-C-2 versus KB-C-1
Kindly provide the numeric value in fold only, without the unit symbol.

// below: answered compounds
- Compound: "CC(=O)O[C@H]1C(=O)[C@@]2(C)[C@H]([C@H](OC(=O)c3ccccc3)[C@]3(O)C[C@H](OC(=O)[C@H](O)[C@@H](NC(=O)c4ccccc4)c4ccccc4)C(C)=C1C3(C)C)[C@]1(OC(C)=O)CO[C@@H]1C[C@@H]2O [Paclitaxel, reference compound]"
  Unit Descriptor: "fold"
  Resistance (fold): 11.48
- Compound: "CC[C@]1(O)C[C@@H]2CN(CCc3c([nH]c4ccccc34)[C@@](C(=O)OC)(c3cc4c(cc3OC)N(C)[C@H]3[C@@](O)(C(=O)OC)[C@H](OC(C)=O)[C@]5(CC)C=CCN6CC[C@]43[C@@H]65)C2)C1 [Vinblastine, reference compound]"
  Unit Descriptor: "fold"
  Resistance (fold): 15.20
- Compound: "COc1ccccc1C(=O)/C=C/c1cc2ccccc2[nH]c1=O"
  Unit Descriptor: "fold"
  Resistance (fold): 1.71

Please look at the following compound next.
**Q:** I am curious: what Resistance (fold) value has been reported for COc1ccc2[nH]c(=O)c(/C=C/C(=O)c3ccccc3OC)cc2c1 ?
**A:** 2.50

----------
pIC50 listing for selected compounds.
Test system: MCF-10A
Assay Procedure: SRB-based cytotoxicity assay
Assay type: cell-based
Condition: Homo sapiens, MCF-10A; MCF10A non-cancer; 72 hours; Table 4
Give only the number. pIC50 is defined as minus log10 of concentration in molar units.

Known pIC50 results, listed for orientation:
- Compound Smiles: "COc1ccc(F)cc1C(=O)/C=C/c1cc2ccccc2[nH]c1=O"
  System Tested: "MCF-10A"
  pIC50: 6.57
- Compound Smiles: "COc1ccc2[nH]c(=O)c(/C=C/C(=O)c3ccc(F)cc3OC)cc2c1"
  System Tested: "MCF-10A"
  pIC50: 6.96
- Compound Smiles: "COc1ccc(OC)c(C(=O)/C=C/c2cc3ccccc3[nH]c2=O)c1"
  System Tested: "MCF-10A"
  pIC50: 6.04
- Compound Smiles: "COc1ccc2[nH]c(=O)c(/C=C/C(=O)c3cc(F)ccc3OC)cc2c1"
  System Tested: "MCF-10A"
  pIC50: 6.34
- Compound Smiles: "COc1ccccc1C(=O)/C=C/c1cc2cccc(OC)c2[nH]c1=O"
  System Tested: "MCF-10A"
  pIC50: 7.69

Here's the next entry for you.
**Q:** Query: pIC50; subject: COc1ccc(C(=O)/C=C/c2cc3cc(OC)ccc3[nH]c2=O)c(OC)c1
**A:** 5.54
